Test system: HOP-92 NSCLC
Assay: NCI-60 one-dose screen, 48 h
Details: 10 µM unless noted
Compounds without any hit were thinned out: in the full panel of roughly 83,000, 20% have a hit. The source made the active and inactive calls. The calls were made as follows: active = growth percent below 10; inactive = the rest.
Classes used: active, inactive

>>> class_name("Cc1ccccc1NC(=O)c1cccc(NC(=O)CCl)c1")
"inactive"
>>> class_name("COc1cccc(NC(=O)c2ccc(NC(=O)CCl)s2)c1")
"inactive"
>>> class_name("O=C1Nc2ccc(F)cc2/C1=C/C(=O)c1cc2ccccc2oc1=O")
"inactive"
>>> class_name("O=C(c1ccc(Cl)cc1)C1[C@H](c2ccccc2Cl)[C@@H](c2ccccc2)NC12C(=O)Nc1ccccc12 (some centres undefined)")
"active"
>>> class_name("N#CC1=C(c2cccs2)Nc2c(c(-c3ccccc3)nn2-c2ccccc2)C12C(=O)Nc1ccc(Br)cc12 (centres undefined)")
"active"
>>> class_name("COc1cc(CNC(=O)[C@]23CCC(C)(C)CC2C2=CCC4[C@@]5(C)CCC(OC(C)=O)C(C)(C)C5CC[C@@]4(C)[C@]2(C)CC3)ccc1OCc1cn(-c2ccc(Cl)cc2Cl)nn1 (some centres undefined)")
"inactive"
>>> class_name("FC(F)(F)c1cc2c(Cl)ncnc2n1CCN1CCCCC1")
"inactive"
>>> class_name("ClC(Cn1ncc2c(Nc3cccc(Br)c3)nc(SCCN3CCOCC3)nc21)c1ccc(Br)cc1 (centres undefined)")
"active"
>>> class_name("COc1ccc(/C=C/c2nc3ccccc3c(=O)n2CC(=O)Nc2ccccc2)cc1")
"active"
